The measured values listed here are drawn from patent US9815851B2.

Biological target: RORγ ligand binding domain (LBD) (Homo sapiens)
Construct: made in house; host or cells: E. coli BL-21 (BL3), vector pDEST15
Sequence (P51449 269-508 limits assumed): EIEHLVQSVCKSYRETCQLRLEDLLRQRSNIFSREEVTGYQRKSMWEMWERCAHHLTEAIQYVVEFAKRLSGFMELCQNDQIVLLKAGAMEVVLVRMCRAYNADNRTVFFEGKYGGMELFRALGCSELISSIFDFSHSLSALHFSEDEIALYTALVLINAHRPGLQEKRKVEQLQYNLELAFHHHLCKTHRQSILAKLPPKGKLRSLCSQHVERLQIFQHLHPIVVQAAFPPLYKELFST
Test: TR-FRET Activity Assay (ligand sensing, RORγ-LBD / coactivator peptide interaction, LANCE)
Type: biochemical
For each record, check the reported IC50: if it is below 300 nM write YES, else write NO.

compound	classification
CCN(C(C)(C)C)S(=O)(=O)c1ccc(-c2cc(C(=O)NC3CCOCC3)c(C)n2CC2CCCCC2)cc1C(F)(F)F [17/85]	NO
Cc1c(C(=O)NC2COC2)cc(-c2cc(C(=O)N(C)C(C)(C)C)cc(C(C)(C)C)c2)n1CC1CCCCC1 [15/4]	NO
Cc1c(C(=O)NCCOCCO)cc(-c2cc(C(C)(C)C)cc(C(C)(C)C)c2)n1CC1CCCCC1 [1/63]	NO
Cc1c(C(=O)NCC(C)(C)O)cc(-c2cc(C(C)(C)O)cc(C3(C)CC3)c2)n1CC1CCCCC1 [17/313]	NO
Cc1c(C(=O)NC2COC2)cc(-c2cc(C(C)(C)C)cc(C(C)(C)C)c2)n1CC1CCCC(C)C1 (stereo not drawn) [1/119]	YES
Cc1c(C(=O)N2CCS(=O)(=O)CC2)cc(-c2ccc(S(=O)(=O)NC(C)(C)C)c(C(C)(C)C)c2)n1CC1CCCCC1 [17/100]	NO
Cc1c(C(=O)NC2CCOCC2)cc(-c2ccc(S(=O)(=O)NC(C)(C)C)c(Cl)c2Cl)n1CC1CCCCC1 [17/276]	YES
Cc1c(C(=O)NCCOC(C)C)cc(-c2cc(C(C)(C)C)cc(C(C)(C)C)c2)n1CC1CCCCC1 [1/62]	NO
Cc1c(C(=O)NCC(C)(C)O)cc(-c2cc(C(=O)NC(C)(C)C)cc(C(C)(C)C)c2)n1CC1CCCCC1 [15/8]	NO
CC(C)(O)CNC(=O)c1cc(-c2ccc(S(=O)(=O)NC(C)(C)C)c(C(C)(C)C)c2)n(CC2CCCCC2)c1C(F)(F)F [1/26]	NO
Cc1c(C(=O)NC2COC2)cc(-c2cc(C(C)(C)C)cc(C(F)(F)F)c2)n1CC1CCCCC1 [1/78]	NO
COC1CN(C(=O)c2cc(-c3cc(C(C)(C)C)cc(C(C)(C)C)c3)n(CC3CCCCC3)c2C)C1 [1/8]	NO
Cc1c(C(=O)NC2CCOCC2)cc(-c2ccc(S(=O)(=O)NC(C)(C)CF)c(C(F)(F)F)c2)n1CC1CCCCC1 [18/5]	NO
Cc1c(C(=O)NC2CCOCC2)cc(-c2ccc(S(=O)(=O)NC(C)(C)C)c(C(C)(C)C)c2)n1CC1CCCCC1 [1/131]	NO
Cc1c(C(=O)NC2(C(=O)O)CC2)cc(-c2cc(C(C)(C)C)c3c(c2)C2(CCO3)CC2)n1CC1CCCCC1 [17/50]	NO
Cc1c(C(N)=O)cc(-c2cc(C(C)(C)C)c3c(c2)C2(CCO3)CC2)n1CC1CCCCC1 [1/105]	YES
Cc1c(C(=O)NCCS(C)(=O)=O)cc(-c2cc(C(C)(C)C)c3c(c2)C2(CCO3)CC2)n1CC1CCCCC1 [1/104]	NO
Cc1c(C(=O)NCC2CCOCC2)cc(-c2ccc(S(=O)(=O)NC(C)(C)C)c(C(C)(C)C)c2)n1CC1CCCCC1 [1/10]	NO
Cc1c(C(=O)NC2(C)CCOCC2)cc(-c2ccc(S(=O)(=O)NC(C)(C)C)c(C(F)(F)F)c2)n1CC1CCCCC1 [17/209]	YES
Cc1c(C(=O)NC2CCOCC2)cc(-c2ccc(S(=O)(=O)NC(C)(C)C)c(C(C)(C)C)c2)n1CC1CCCC1 [17/212]	NO
Cc1c(C(=O)NC2COC2)cc(-c2cc(C(C)(C)C)nc(C(F)(F)F)c2)n1CC1CCCCC1 [9/15]	NO
Cc1c(C(=O)NCC2(O)CCOCC2)cc(-c2ccc(S(=O)(=O)NC(C)(C)C)c(C(C)(C)C)c2)n1CC1CCCCC1 [1/124]	NO
COCOc1ccc(-c2cc(C(=O)NC3COC3)c(C)n2CC2CCCCC2)cc1C(C)(C)C [1/24]	NO
CCN(C(C)(C)C)S(=O)(=O)c1ccc(-c2cc(C(=O)NCC(C)(C)O)c(C)n2CC2CCCCC2)cc1C(C)(C)C [9/10]	NO
Cc1c(C(=O)N[C@@H]2CCOC2)cc(-c2cc(C(C)(C)C)cc(C3(C)CC3)c2)n1CC1CCCCC1 [17/66]	YES
CC(C)(C)NS(=O)(=O)c1ccc(-c2cc(C(=O)NC3CCOCC3)cn2CC2CCCCC2)cc1C(C)(C)C [17/116]	NO
Cc1c(C(=O)NC(C)C(C)(C)O)cc(-c2cc(C(C)(C)C)cc(C(C)(C)C)c2)n1CC1CCCCC1 (stereo not drawn) [1/36]	YES
Cc1c(C(=O)N[C@H]2CCOC2)cc(-c2cc(C(C)(C)C)cc(C3(C)CC3)c2)n1CC1CCCCC1 [17/65]	YES
Cc1c(C(=O)NCCCNS(C)(=O)=O)cc(-c2cc(C(C)(C)C)c3c(c2)C2(CCO3)CC2)n1CC1CCCCC1 [17/3]	NO
Cc1c(C(=O)NC2CSC2)cc(-c2cc(C(C)(C)C)cc(C(C)(C)C)c2)n1CC1CCCCC1 [1/14]	NO
